Exercise: for every item that follows, state its recorded pIC50.
Reminder that pIC50 is minus the log10 of a molar concentration.

Hey, TNKS-1 (Homo sapiens) data for Cc1c(Cl)c2ccc(N(C)C)cc2[nH]c1=O [NSC319963] : pIC50 came out at 7.66

Measured pIC50 for this entry Cc1c(C)c2ccc(N(C)C)cc2[nH]c1=O [NSC295092] on TNKS-1 (Homo sapiens): 7.18
